Overview of reported Papp B→A at 1.5 h, 10 µM across a group of compounds:
# ASSAY_TEXT: Apparent permeability across basal to apical side in human Caco-2 cells at 10 uM incubated for 90 mins by LC-MS/MS analysis
PROPERTY_LABEL: Papp B→A at 1.5 h, 10 µM (×10⁻⁶ cm/s)

1. OC[C@H]1O[C@H](Sc2ccc(Cl)c(Cl)c2)[C@H](O)[C@@H](n2cc(-c3csc(O)n3)nn2)[C@H]1O; 35
2. COc1nc(-c2cn([C@@H]3[C@@H](O)[C@@H](Sc4cc(Cl)c(F)c(Cl)c4)O[C@H](CO)[C@@H]3O)nn2)cs1; 61
3. CO[C@@H]1[C@@H](n2cc(-c3csc(O)n3)nn2)[C@@H](O)[C@@H](CO)O[C@@H]1Sc1cc(Cl)c(F)c(Cl)c1; 57
4. CN(C)c1nc(-c2cn([C@@H]3[C@@H](O)[C@@H](Sc4cc(Cl)c(F)c(Cl)c4)O[C@H](CO)[C@@H]3O)nn2)cs1; 52
5. Nc1csc(-c2cn([C@@H]3[C@@H](O)[C@@H](Sc4cc(Cl)c(F)c(Cl)c4)O[C@H](CO)[C@@H]3O)nn2)n1; 42
6. OC[C@H]1O[C@H](Sc2cc(Cl)c(F)c(Cl)c2)[C@H](O)[C@@H](n2cc(-c3csc(O)n3)nn2)[C@H]1O; 35
7. CO[C@@H]1[C@@H](n2cc(-c3csc(N)n3)nn2)[C@@H](O)[C@@H](CO)O[C@@H]1Sc1cc(Cl)c(F)c(Cl)c1; 39
